# Experiment summary: yeast display, Sf9 membrane polyspecificity reagent, FACS + sequencing; frameworks hold sequencing errors
Readout kind: polyreactivity (PSR sort gate)

- Seq text: "QVQLVESGGGLVQAGGSLRLSCAASGSTFRGNAMGWYRPAPGKERELVASITGGGSTNYADSVKGRFTISRDNAKNTVYVPMNSLKPEDTAGYYCAADWGADFYWGQGTQVTVSS"
  polyreactivity (PSR sort gate): "low polyreactivity"
- Seq text: "QVQLVESGGGLVQAGCSLRLSCAASGRIFTHNAMGWYRPAPGKERELVAAITSGGRTTYADSVKGRFTFSRDNAKNTVYLQMHSLNPEDTAVYYCNADTGLGSLDFDKRDYWGQGTQVTVSS"
  polyreactivity (PSR sort gate): "low polyreactivity"
- Seq text: "QVQLLESGGGLVKAGGSLRVSCAASGLTFNYYAMGWYRHAPGKDRELCAAISRRGGYTYYADSVKGRFTISRDNAKNTVYVQKNSQKPEDTAVYDCAADNYEHNYYGYYYWGQGNQVTVSS"
  polyreactivity (PSR sort gate): "high polyreactivity"
- Seq text: "QVQLVESGGGLVQAGGSLRLSCAASGSTIYRYAMGGYRQAPGKERELVAAITWSGGSTYYADSVKGRFTISRDNAKNTVYLQMNSLKPADTAVYYCNAVARYYYKDQTIIHSPREDYWGQGTQVTVSS"
  polyreactivity (PSR sort gate): "low polyreactivity"

-- ask Consider the sequence QVQLVESGGRLVQAGGSLRLSCSASGLTFTNYAMGSYRQAPGKERELVAAISNSGATTYYADSVKGRFTISRDNAKNTVYVQLKSLKPEDTAVYYCAATSYTATWRYYYWGQGTQVTVSS and give its measured polyreactivity (PSR sort gate).
-- reply high polyreactivity

-- ask Next record, please: QVQLVESGGGLVQAGGSHGLSCAASGRTSEKNPMGWYRQAPGIERELVAGISWRGGSTYYADSVKGRFTISRDNAKNTVYLQMNSLKPEDTAFYYCARSGAFSGLDDSWGQGTQVTVSS
-- reply low polyreactivity

-- ask Next record, please: QVQLVESGGGLVQAGGSLRLSCAASGSISGYNAMGWYRQAPGKESELVAVITTDGSTNYADSEKGRFTISRDNAKNTVYLQMNSLKPEDTAVYYCNTDDGWRLLWEYDYWGQGTQVTVSS
-- reply low polyreactivity

-- ask Next record, please: QVQLVESGGGIVQAGGSLRLSCAASGRIFGIYERGWLRQAPGKEREMVAGITRGDRTYADSVKGRFTISRDNAKNTVYLQMNSLKPVDTAVYYCNADVYPYKLALPAGMGYWGQGTQVTVSS
-- reply high polyreactivity

-- ask Next record, please: QVQLVETGGGIVQAGGSLRLSSAASGRIFASNAMGWYRQAPGKERELVAAIDQCGGSTYYADSVKGRFTISRDNAKNTVYLQMNSLKPEDTAVYYCAADYITAYPRLYNYWGQGTQVTVSS
-- reply low polyreactivity

-- ask Next record, please: QVHLVESGGGLVQAGGSLRLSCAASGFIFPNNAMGWYRQAPGKERELVARISYGGGDTHYADSVKGRFTISRDNAKNTVYLQMNSLKPEDTAVSYCAVKDGQDDYWGQGTQVTVSS
-- reply low polyreactivity

-- ask Next record, please: QVQLVESGGGLVQAGGSLRLSCAASGLTFSLNAMGWYRQAPGKERELVAAIRGSGGSTYYADSVKGRFTISRDNAKNTVYLQMNCLKPEDTAVYYCNADQLVWQRYGVLYEYDYWGQGTQVTVSS
-- reply high polyreactivity

-- ask Next record, please: QVQLVESGGGLVQAGGSLRLSCAASGIIFGSYAIGWYRQAPGKERELVAGISRRGDSTYYADSVKGRFTISRDNAKNTVYLQMNSLKPEDTAVYYCAARWFRRSTYLYYYWGQGTQVTVSS
-- reply high polyreactivity

-- ask Next record, please: QVQLVESGGGLVQAGGSLRLSCAASGSTFQYYAMGWYRQAPGKEREMVAAISASVDTTFYADSVKGRFTISRDNAKNTVYLQMNSLKPEDTAVYYCATDWPHWRKVYWFDYWGQGTQVTVSS
-- reply low polyreactivity

-- ask Next record, please: QVQLVESGGGLVQAGGSLRLSCAASGRIFPGYAMGWYRQAPGKERELVAGITWRTARTYYADSVKGRFTISRDNAKNTVYLQMNSLKPEDTAVYYCAAKYARYGRHVIFDYWGQGTQVTVSS
-- reply high polyreactivity

-- ask Next record, please: QVQLVESGGGLVQAGGSLRLSCAASGRIFIQNTMGWYRQAPGKERELVAAITRSGGRTYYADSVKGRFTISRDNAKNTVYLQMNSLKPEDTAVYYCAAVARTVPSYSYNYWGQGTQVTVSS
-- reply high polyreactivity

-- ask Next record, please: QVQLVESGGGLVQAGGSLRLSCAASGSTFLRNAMRWYRQAPGKERELVAAISRSGGSTYYADSVKGRFTSSRDNAKNTVYLQMNSLKPEDTAVYYCAAVVKYRYSAYGGDYCGQGTQVTVSS
-- reply high polyreactivity
